tested_target: SARS2 protease (Severe acute respiratory syndrome coronavirus 2, UniProt P0DTD1)
assay_explanation: SARS-CoV-2 protease inhibition assay (SARS2 FRET protease assay)
Format: biochemical
Protocol: Viral protease assays: The antiviral activities of inhibitors were determined by FRET (Fluorescence Resonance Energy Transfer) assay. Purified viral protease was incubated with the protease substrate peptide (Edans-DFHLQ/GP-Dabcyl) and inhibitor, and IC50 values were subsequently determined by the fluorescence signals. The SARS2 FRET protease assay was performed in 20 mM HEPES-Na pH 7, 120 mM NaCl, 0.4 mM EDTA, 0.01% Triton, 5% glycerol, and 4 mM DTT. […]
measure: IC50

Example entries begin here.
CC(C)C[C@@H]1NC(=O)OC(Cc2ccccc2)CCC=CCC(C(=O)N(C)C)C[C@@H](C(=O)C(=O)NC(C)C)NC1=O (stereo partly drawn) [Compound B42] : > 200 µM
CCCCCCCC1CCC/C=C/CC2(CCNC2=O)C[C@@H]([C@H](O)P(=O)(OCC)OCC)NC(=O)[C@H](CC(C)C)NC1=O (stereo partly drawn) [Compound B22] : > 200 µM

# context switch: different molecule, same IC50
Query: Request the reported IC50 associated with CCCC1CCCC/C=C/CC(C(=O)N(C)Cc2ccc(OC)cc2OC)C[C@@H](C(O)P(=O)(OCC)OCC)NC(=O)[C@H](CC(C)C)NC1=O (stereo partly drawn) [Compound B25]
Result: > 200 µM

----------
Below: a set of entries, each annotated with reported IC50.
tested_target: Norwalk GGI.1 Norovirus protease (Norovirus)
Sequence (Q83883 1101-1281): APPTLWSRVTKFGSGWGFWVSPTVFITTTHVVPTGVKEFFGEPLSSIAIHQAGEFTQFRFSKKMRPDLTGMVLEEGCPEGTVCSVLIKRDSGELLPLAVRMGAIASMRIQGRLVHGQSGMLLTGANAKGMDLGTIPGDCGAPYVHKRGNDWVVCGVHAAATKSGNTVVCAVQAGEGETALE
assay_explanation: Noro-Norwalk FRET protease assay (Norwalk GGI.1)
Type: biochemical, Norwalk virus
particulars: Table C; FRET protease assay; read-out: Norwalk GGI.1 IC50
The response must be a number in µM with no trailing unit.

Example entries begin here.
O=C[C@H](CCC(=O)N1CCOC(c2ccccc2)C1)NC(=O)[C@H](CC1CCCCC1)NC(=O)OCc1cccc(Cl)c1 (stereo in doubt) : 11
O=C[C@H](CCC(=O)N1CCOCc2ccccc21)NC(=O)[C@H](CC1CCCCC1)NC(=O)OCc1cccc(Cl)c1 : 8
CN(CCc1cccc(Cl)c1)C(=O)CC[C@@H](C=O)NC(=O)[C@H](CC1CCCCC1)NC(=O)OCc1cccc(Cl)c1 (stereo in doubt) : 117
CCOP(=O)(OCC)C(O)[C@H](CCC(=O)N(CC)CCc1ccccc1)NC(=O)[C@H](CC1CCCCC1)NC(=O)OCc1cccc(Cl)c1 (some centres unmarked) : 97.4

# context switch: different compound, same IC50
Query: Request the reported IC50 associated with CCNC(=O)NCCN(C)C(=O)CC[C@H](NC(=O)[C@H](CC1CCCCC1)NC(=O)OCc1cccc(Cl)c1)C(O)P(=O)(OCC)OCC (some centres unmarked)
Result: 81.9

----------
tested_target: Norwalk GGI.1 Norovirus protease (Norovirus)
assay_explanation: Noro-Norwalk FRET protease assay (Norwalk GGI.1)
Format: biochemical, Norwalk virus
particulars: Table C; FRET protease assay; read-out: Norwalk GGI.1 IC50
Experimental: Viral protease assays: The antiviral activities of inhibitors were determined by FRET (Fluorescence Resonance Energy Transfer) assay. Purified viral protease was incubated with the protease substrate peptide (Edans-DFHLQ/GP-Dabcyl) and inhibitor, and IC50 values were subsequently determined by the fluorescence signals. The Noro-Norwalk FRET protease assay was performed in 50 mM HEPES-Na pH 8, 50 mM NaCl, 0.4 mM EDTA, 4% glycerol, and 6 mM DTT. […]
measure: pIC50
The quantity pIC50 is defined as the negative base-10 logarithm of the molar concentration.

CON(C)C(=O)[C@H](CCC(=O)N(C)CCc1ccccc1Cl)NC(=O)[C@H](CC1CCCCC1)NC(=O)OCc1cccc(Cl)c1 (stereo in doubt) : 3.93

Query: Request the reported pIC50 associated with CCCCCN(C)C(=O)CC[C@@H](C=O)NC(=O)[C@H](CC1CCCCC1)NC(=O)OCc1cccc(Cl)c1
Result: 5.80

Query: Request the reported pIC50 associated with CCOP(=O)(OCC)C(O)[C@H](CCC(=O)N(C)CCNS(=O)(=O)CC)NC(=O)[C@H](CC1CCCCC1)NC(=O)OCc1cccc(Cl)c1 (stereo partly drawn)
Result: 3.85

Query: Request the reported pIC50 associated with CN(CCc1ccccc1Cl)C(=O)CC[C@@H](C=O)NC(=O)[C@H](CC1CCCCC1)NC(=O)OCc1cccc(Cl)c1
Result: 4.55

----------
Below: a set of entries, each annotated with reported pIC50.
tested_target: SARS2 protease (Severe acute respiratory syndrome coronavirus 2)
assay_explanation: SARS-CoV-2 protease inhibition assay (SARS2 FRET protease assay)
Assay type: biochemical
particulars: Table E; SARS-CoV-2 protease inhibition; read-out: IC50
pIC50: −log10 of the molar value.

Example entries begin here.
CCCCCCCC1CCC/C=C/CC(C(=O)N(C)C)C[C@@H](C=O)NC(=O)C(CC(C)C)NC1=O (stereo partly shown) : 3.81
CCNC(=O)CN(C)C(=O)CC[C@@H](C=O)NC(=O)[C@H](CC1CCCCC1)NC(=O)OCc1cccc(Cl)c1 : 3.86
CCO[N+]([O-])(OCC)[C@H](O)[C@H]1CC2(CCCCCCC(Cc3ccccc3)C(=O)N[C@@H](CC(C)C)C(=O)N1)CCNC2=O (stereo partly shown) : < 3.70
CN1C(=O)CCC(NC(=O)[C@H](CC2CCCCC2)NC(=O)OCc2cccc(Cl)c2)C1O (stereo partly shown) : < 3.70
CCCCCCCC1CCCCCCCC(C(=O)N(C)C)CC(C(=O)N(C)OC)NC(=O)[C@H](CC(C)C)NC1=O (stereo in doubt) : < 3.70
CCCCCCCC1CC/C=C/CC(C(=O)NC)C[C@@H](CO)NC(=O)[C@H](CC(C)C)NC(=O)O1 (stereo partly shown) : 4.52

Query: Request the reported pIC50 associated with CCOP(=O)(OCC)C(O)[C@H](CCC(=O)N1CCCCc2ccccc21)NC(=O)[C@H](CC1CCCCC1)NC(=O)OCc1cccc(Cl)c1 (stereo partly shown)
Result: < 3.70

Query: Request the reported pIC50 associated with CCOP(=O)(OCC)C(O)[C@H](CCC(=O)N1CCCC(c2ccccc2)C1)NC(=O)[C@H](CC1CCCCC1)NC(=O)OCc1cccc(Cl)c1 (stereo partly shown)
Result: < 3.70

Query: Request the reported pIC50 associated with CN(C(=O)CC[C@@H](C=O)NC(=O)[C@H](CC1CCCCC1)NC(=O)OCc1cccc(Cl)c1)c1ccccc1
Result: 4.39

Query: Request the reported pIC50 associated with CCCC1CCCC/C=C/CC2CC(NC(=O)[C@H](CC(C)C)NC1=O)C(O)(C(=O)NC(C)C)N(C)C2=O (stereo partly shown)
Result: < 3.70

Query: Request the reported pIC50 associated with CCCCCCCCC(=O)N[C@@H](CC(C)C)C1=NC(CCC(=O)NC)CO1 (stereo partly shown)
Result: < 3.70

Query: Request the reported pIC50 associated with CCCCCCCC1CCC/C=C/CC(C(=O)N(C)C)CC(C(=O)N(C)OC)NC(=O)[C@H](CC(C)C)NC(=O)O1 (stereo in doubt)
Result: < 3.70

Query: Request the reported pIC50 associated with CCOCCOCCN(C)C(=O)CC[C@H](NC(=O)C(CC1CCCCC1)NC(=O)OCc1cccc(Cl)c1)C(O)P(=O)(OCC)OCC (stereo in doubt)
Result: < 3.70

Query: Request the reported pIC50 associated with CCNC(=O)OCCN(C)C(=O)CC[C@H](NC(=O)[C@H](CC1CCCCC1)NC(=O)OCc1cccc(Cl)c1)C(=O)N(C)OC
Result: < 3.70

Query: Request the reported pIC50 associated with CCOP(=O)(OCC)C(O)[C@H](CCC(=O)N(C)CCc1ccccc1Cl)NC(=O)[C@H](CC1CCCCC1)NC(=O)OCc1cccc(Cl)c1 (stereo partly shown)
Result: < 3.70

Query: Request the reported pIC50 associated with CON(C)C(=O)C1CC(C(=O)N(C)C)CCCCCC(Cc2ccccc2)OC(=O)N[C@@H](CC(C)C)C(=O)N1 (stereo in doubt)
Result: < 3.70

Query: Request the reported pIC50 associated with CCCCCCCCC(=O)N[C@@H](CC(C)C)C(=O)NC1(C)CCC(=O)N(C)C1(O)C(=O)NC(C)C (stereo partly shown)
Result: < 3.70

Query: Request the reported pIC50 associated with CCOP(=O)(OCC)C(O)[C@H](CCC(=O)N(C)c1ccccc1)NC(=O)[C@H](CC1CCCCC1)NC(=O)OCc1cccc(Cl)c1 (stereo partly shown)
Result: < 3.70

Query: Request the reported pIC50 associated with CON(C)C(=O)[C@H](CCC(=O)N(C)CCc1cccc(Cl)c1)NC(=O)[C@H](CC1CCCCC1)NC(=O)OCc1cccc(Cl)c1
Result: < 3.70

Query: Request the reported pIC50 associated with CCCCCCCCC(=O)N[C@@H](CC(C)C)C(=O)N[C@@H](CCC(=O)NC)CSSC[C@H](CCC(=O)NC)NC(=O)[C@H](CC(C)C)NC(=O)CCCCCCCC
Result: < 3.70

Query: Request the reported pIC50 associated with CCCCCN(C)C(=O)CC[C@H](NC(=O)[C@H](CC1CCCCC1)NC(=O)OCc1cccc(Cl)c1)C(O)P(=O)(OCC)OCC (stereo partly shown)
Result: < 3.70

Query: Request the reported pIC50 associated with CCCCCCCC1CCCC/C=C/CC(C(=O)N(C)C)CC(C=O)NC(=O)[C@H](CC(C)C)NC1=O (stereo in doubt)
Result: < 3.70

Query: Request the reported pIC50 associated with CC(C)C[C@@H]1NC(=O)OC(Cc2ccccc2)CCCCCC(C(=O)N(C)C)CC(C=O)NC1=O (stereo in doubt)
Result: 3.73

Query: Request the reported pIC50 associated with CN(CCc1ccc(Cl)cc1)C(=O)CC[C@@H](C=O)NC(=O)[C@H](CC1CCCCC1)NC(=O)OCc1cccc(Cl)c1 (stereo in doubt)
Result: 4.51

Query: Request the reported pIC50 associated with CON(C)C(=O)[C@H](CCC(=O)N(C)CC(C)c1ccccc1)NC(=O)[C@H](CC1CCCCC1)NC(=O)OCc1cccc(Cl)c1 (stereo in doubt)
Result: < 3.70
